Every entry's value here was drawn from patent US9623123B2.

# experiment: UV-visible absorption and fluorescence spectra, fluorescence quantum yields in solution
# Assay type: physicochemical
# assay_conditions: methylene chloride solution (Table 10, Example 14)
quantity_name: Emission maxima (nm)
Respond numerically; units are nm and should not be typed.

Below: 5 compounds and their reported Emission maxima.
INSERT INTO measurements (compound, result) VALUES
  ('C#CC1=C(C)C2=C(c3ccc(OCCCCCCCCCCCC)c(OCCCCCCCCCCCC)c3)c3c(C)c(C#C)c(C)n3[B-](F)(F)[N+]2=C1C [Compound 6b]', 553),
  ('CCCCCCCCCCCCOc1ccc(C2=C3C(C)=CC(C)=[N+]3[B-](F)(F)n3c(C)cc(C)c32)cc1 [Compound 3a]', 510),
  ('CCCCCCCCCCCCOc1ccc(C2=C3C(C)=C(I)C(C)=[N+]3[B-](F)(F)n3c(C)c(I)c(C)c32)cc1OCCCCCCCCCCCC [Compound 4b]', 549),
  ('C#CC1=C(C)C2=C(c3ccc(OCCCCCCCCCCCC)cc3)c3c(C)c(C#C)c(C)n3[B-](F)(F)[N+]2=C1C [Compound 6a]', 552),
  ('CCCCCCCCCCCCOc1ccc(C2=C3C(C)=C(I)C(C)=[N+]3[B-](F)(F)n3c(C)c(I)c(C)c32)cc1 [Compound 4a]', 548);

I am curious: what Emission maxima value has been reported for CCCCCCCCCCCCOc1ccc(C2=C3C(C)=C(C#C[Si](C)(C)C)C(C)=[N+]3[B-](F)(F)n3c(C)c(C#C[Si](C)(C)C)c(C)c32)cc1OCCCCCCCCCCCC [Compound 5b] ?
570

Which Emission maxima value is on record for CCCCCCCCCCCCOc1ccc(C2=C3C(C)=C(C#C[Si](C)(C)C)C(C)=[N+]3[B-](F)(F)n3c(C)c(C#C[Si](C)(C)C)c(C)c32)cc1 [Compound 5a] ?
569

Returns the measured Emission maxima for the input compound. Input: CCCCCCCCCCCCOc1ccc(C2=C3C(C)=CC(C)=[N+]3[B-](F)(F)n3c(C)cc(C)c32)cc1OCCCCCCCCCCCC [Compound 3b]
511

* * *

# experiment: UV-visible absorption and fluorescence spectra, fluorescence quantum yields in solution
# Format: physicochemical
# assay_conditions: methylene chloride solution (Table 9, Example 13)
# Experimental: ^1H NMR and ^13C NMR spectra were taken on a 400 MHz Varian Unity Inova spectrophotometer instrument. ^1H and ^13C NMR spectra were recorded in CDCl3, chemical shifts (δ) are given in ppm relative to solvent peaks (1H: δ 7.26; 13C: δ 77.3) as internal standard. […] Fluorescence spectra were recorded on a Spex Fluorolog 1681 0.22 m steady-state fluorometer. […] Molecular weights were measured relative to polystyrene standards. […]
Quick rule for you: Stokes shift at 10 nm or higher means true (1), lower means false (0).

Examples with answers:
INSERT INTO measurements (chem_smiles, assigned_class) VALUES
  ('C#CC1=C(C)C2=C(c3ccc(OCCCCCCCCCCCC)cc3)c3c(C)c(C#C)c(C)n3[B-](F)(F)[N+]2=C1C', 'true (1)'),
  ('CCCCCCCCCCCCOc1ccc(C2=C3C(C)=CC(C)=[N+]3[B-](F)(F)n3c(C)cc(C)c32)cc1OCCCCCCCCCCCC', 'false (0)'),
  ('C#CC1=C(C)C2=C(c3cc(OCCCCCCCCCCCC)c(OCCCCCCCCCCCC)c(OCCCCCCCCCCCC)c3)c3c(C)c(C#C)c(C)n3[B-](F)(F)[N+]2=C1C', 'true (1)'),
  ('CCCCCCCCCCCCOc1ccc(C2=C3C(C)=C(I)C(C)=[N+]3[B-](F)(F)n3c(C)c(I)c(C)c32)cc1OCCCCCCCCCCCC', 'true (1)'),
  ('CCCCCCCCCCCCOc1cc(C2=C3C(C)=C(C#C[Si](C)(C)C)C(C)=[N+]3[B-](F)(F)n3c(C)c(C#C[Si](C)(C)C)c(C)c32)cc(OCCCCCCCCCCCC)c1OCCCCCCCCCCCC', 'true (1)');

Now examine the next entry.
Identify whether the reported Stokes shift of the following compound is 10 nm or greater: CCCCCCCCCCCCOc1cc(C2=C3C(C)=CC(C)=[N+]3[B-](F)(F)n3c(C)cc(C)c32)cc(OCCCCCCCCCCCC)c1OCCCCCCCCCCCC
false (0)
